Details: the molecule shown is the open-chain precursor; disulfide bond; 53-membered ring; air (after HF deprotection); 2 steps
// reported ring closure, isolated yield for each item listed
Hi! Could you send only the number? It should be in %, unit omitted.

• H-Aib-Cys-Phe-Gly-Gly-Arg-Nle-Asp-Arg-Ile-Gly-Ala-Gln-Ser-Gly-Leu-Gly-Cys-Asn-Ser-Phe-Arg-Tyr-OH = 14.4

q: Tell me the measured ring closure, isolated yield of H-Aib-Cys-Phe-Gly-Gly-Arg-Leu-Asp-Arg-Ile-Gly-Ala-Gln-Ser-Gly-Leu-Gly-Cys-Asn-Ser-Phe-Arg-Tyr-OH , please.
a: 22

q: Tell me the measured ring closure, isolated yield of H-Cys-Phe-Gly-Gly-Arg-DL-Chg-Asp-Arg-Ile-Gly-Ala-Gln-Ser-Gly-Leu-Gly-Cys-Asn-Ser-Phe-Arg-Tyr-OH , please.
a: 38

q: Tell me the measured ring closure, isolated yield of H-Ile-Cys-Phe-Gly-Gly-Arg-Met-Asp-Arg-Ile-Gly-Ala-Gln-Ser-Gly-Leu-Gly-Cys-Asn-Ser-Phe-Arg-Tyr-OH , please.
a: 11

q: Tell me the measured ring closure, isolated yield of H-Cys-Phe-Gly-Gly-Arg-Met-Asp-Arg-Ile-Gly-Ala-Gln-Ser-Gly-Leu-Gly-Cys-Asn-Ser-Phe-dArg-Tyr-OH , please.
a: 25
